molecular target: C-C chemokine receptor type 2 (Homo sapiens, UniProt P41597); experiment: Displacement of radiolabeled MCP1 from CCR2 in human PBMC by millipore filter plate assay
Sequence (P41597 whole entry): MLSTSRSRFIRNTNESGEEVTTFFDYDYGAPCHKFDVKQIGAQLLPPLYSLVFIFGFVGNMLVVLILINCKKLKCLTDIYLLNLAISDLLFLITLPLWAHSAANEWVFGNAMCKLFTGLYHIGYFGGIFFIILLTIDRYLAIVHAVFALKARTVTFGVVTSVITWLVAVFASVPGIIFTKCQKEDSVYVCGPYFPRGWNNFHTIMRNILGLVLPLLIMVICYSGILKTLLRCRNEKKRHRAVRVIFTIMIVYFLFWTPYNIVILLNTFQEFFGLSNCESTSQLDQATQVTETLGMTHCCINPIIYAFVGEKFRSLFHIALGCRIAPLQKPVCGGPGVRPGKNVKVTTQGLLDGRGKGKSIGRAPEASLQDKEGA
pIC50: −log10 of the molar value.
# key: entry, value: pIC50

{"columns": ["compound", "pIC50"],
 "data": [
  ["CCCCN1CCC(NCc2ccc(SC)cc2)C(NC(=O)CNC(=O)c2cc(C(F)(F)F)ccc2N)C1 (racemic)", 8.10],
  ["CCCN1CCC(NCc2ccc(SC)cc2)C(NC(=O)CNC(=O)c2cc(C(F)(F)F)ccc2NC(=O)N2CCCC2)C1 (racemic)", 8.06],
  ["CCCN1CCC(NC(=O)c2ccc(SC)cc2)C(NC(=O)CNC(=O)c2cc(N)cc(C(F)(F)F)c2)C1 (racemic)", 8.21]
]}
